Origin of measurements: ChEMBL document CHEMBL1130287

# MEASURED_ON: UniProt:P26684
# Sequence (P26684 whole entry): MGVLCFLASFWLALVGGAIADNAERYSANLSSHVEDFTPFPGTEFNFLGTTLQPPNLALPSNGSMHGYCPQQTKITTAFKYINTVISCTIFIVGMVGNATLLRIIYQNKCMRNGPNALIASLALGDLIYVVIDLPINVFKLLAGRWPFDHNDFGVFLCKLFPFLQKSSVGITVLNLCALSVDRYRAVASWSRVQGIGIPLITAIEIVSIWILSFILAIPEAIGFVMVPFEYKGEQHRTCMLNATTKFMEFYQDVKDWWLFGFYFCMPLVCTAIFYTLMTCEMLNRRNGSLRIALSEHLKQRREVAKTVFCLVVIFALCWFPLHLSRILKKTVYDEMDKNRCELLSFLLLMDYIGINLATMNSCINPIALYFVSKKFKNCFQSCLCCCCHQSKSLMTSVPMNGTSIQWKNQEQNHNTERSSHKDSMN
# ASSAY_SUMMARY: Binding affinity towards endothelin A receptor in prolactin secreting rat pituitary cells using [125I]ET1 as radioligand.
pIC50: −log10 of the molar value.
MEASUREMENT_TYPE: pIC50

>  <SMILES>
CCCN(C)C(=O)CN1C[C@H](c2ccc(OC)cc2OC)[C@@H](C(=O)O)[C@@H]1c1ccc(OC)cc1

>  <MEASURED_ON>
UniProt:P26684

>  <MEASUREMENT_TYPE>
pIC50

>  <OBSERVED_MEASUREMENT>
6.39

$$$$
>  <SMILES>
CCCN(C)C(=O)CN1C[C@H](c2ccc3c(c2)CCC3)[C@@H](C(=O)O)[C@@H]1c1ccc(OC)cc1

>  <MEASURED_ON>
UniProt:P26684

>  <MEASUREMENT_TYPE>
pIC50

>  <OBSERVED_MEASUREMENT>
6.51

$$$$
>  <SMILES>
CCCN(C)C(=O)CN1C[C@H](c2cccc(OC)c2)[C@@H](C(=O)O)[C@@H]1c1ccc(OC)cc1

>  <MEASURED_ON>
UniProt:P26684

>  <MEASUREMENT_TYPE>
pIC50

>  <OBSERVED_MEASUREMENT>
5.77

$$$$
>  <SMILES>
CCCN(C)C(=O)CN1C[C@H](c2ccc3cc[nH]c3c2)[C@@H](C(=O)O)[C@@H]1c1ccc(OC)cc1

>  <MEASURED_ON>
UniProt:P26684

>  <MEASUREMENT_TYPE>
pIC50

>  <OBSERVED_MEASUREMENT>
5.29

$$$$
>  <SMILES>
CCCN(C)C(=O)CN1C[C@H](c2ccc(OC)cc2)[C@@H](C(=O)O)[C@@H]1c1ccc(OC)cc1

>  <MEASURED_ON>
UniProt:P26684

>  <MEASUREMENT_TYPE>
pIC50

>  <OBSERVED_MEASUREMENT>
6.75

$$$$
>  <SMILES>
CCCCN(CCCC)C(=O)CN1C[C@H](c2cccnc2)[C@@H](C(=O)O)[C@@H]1c1ccc(OC)cc1

>  <MEASURED_ON>
UniProt:P26684

>  <MEASUREMENT_TYPE>
pIC50

>  <OBSERVED_MEASUREMENT>
6.03

$$$$
>  <SMILES>
CCCCN(CCCC)C(=O)CN1C[C@H](c2ccc(OC)cc2OC)[C@@H](C(=O)O)[C@@H]1c1ccc(OC)cc1

>  <MEASURED_ON>
UniProt:P26684

>  <MEASUREMENT_TYPE>
pIC50

>  <OBSERVED_MEASUREMENT>
8.43

$$$$
>  <SMILES>
CCCN(C)C(=O)CN1C[C@H](c2cccc3ccccc23)[C@@H](C(=O)O)[C@@H]1c1ccc(OC)cc1

>  <MEASURED_ON>
UniProt:P26684

>  <MEASUREMENT_TYPE>
pIC50

>  <OBSERVED_MEASUREMENT>
5.64

$$$$
